- EXPERIMENTAL_SYSTEM: AgSho1
- METHOD_SUMMARY: SPOT peptide array binding signal intensity (averaged, normalized) (arbitrary units (background-subtracted, floor 0; scale differs between SH3 domains)); higher = stronger binding of the SH3 domain to the peptide
OBSERVED_PROPERTY: SPOT peptide array binding signal intensity
// response body must contain only the number

Would you please look over these solved cases?
SGVRLPAPPPPPRRG	36
FVLRYYILIPHEQWD	218
SNRRPVPRRPSQPLN	5.75

Item under review: RFKRHRLEFPFNESE . Reported SPOT peptide array binding signal intensity?
46

Which SPOT peptide array binding signal intensity is reported for this binder? QRKSLRRPTLSKPAV
10

Requested field: SPOT peptide array binding signal intensity. Item: LFMKGTPEFPKSGFS
248

# get_value(readout='SPOT peptide array binding signal intensity', item= ILARAILTIPRVLDK )
516

Name the recorded SPOT peptide array binding signal intensity for ITHRLRISIPGITGR .
329

Quick check: SPOT peptide array binding signal intensity of QQEQNTPPLPPKPKS ?
16.5

Please look up its SPOT peptide array binding signal intensity: GATNNAPTLPKRKNP
3.75

# query: SPOT peptide array binding signal intensity of entry IVNKPLPPLPVAGSS
6850

Entry SSSSSPPPLPTRRDH : reported SPOT peptide array binding signal intensity = ?
19

Suppose we examine the binder RAPPPVPKKPSSRIA ; what SPOT peptide array binding signal intensity value has been reported?
296

Look at this binder and give its reported SPOT peptide array binding signal intensity. TPRLSLPRLPNKHHW
274

Would you kindly share the measured SPOT peptide array binding signal intensity for RSKRLFPVRPMATAH ?
79

I have this binder here, GTIARPLFLVVLFFI , and I need its recorded SPOT peptide array binding signal intensity.
338

Which SPOT peptide array binding signal intensity value belongs to KLSRGRYGLPLSSRP ?
6

For KRRTSLFPWLHKPGI , what is its reported SPOT peptide array binding signal intensity?
23
